Here's a roundup of pIC50 values tested on Tyrosine-protein kinase receptor UFO (Homo sapiens), taken from various published works.
pIC50: −log10 of the molar value.

Please review the entries below; each comes with its answer.
compound=Nc1ncnn2c1c(-c1ccc(NC(=O)c3c4n(n(-c5ccccn5)c3=O)CCOC4)cc1F)cc2[C@H]1CC[C@H](O)CC1 quantity_kind=pIC50 endpoint_value="7.30 to 8.30"
compound=COc1cc2nccc(Oc3ccc(NC(=O)c4cn(C)c(C)c(C5=CCCC5)c4=O)cc3F)c2nc1OC quantity_kind=pIC50 endpoint_value="≥ 7.00"
compound=C[C@@H](CC(F)(F)F)Nc1ncc2c(O[C@H]3C[C@@H](CN4CCOCC4)C3)ncc([C@H]3CC[C@H](O)CC3)c2n1 quantity_kind=pIC50 endpoint_value="≥ 7.00"

Exam item: Look up and report measured pIC50 (Tyrosine-protein kinase receptor UFO (Homo sapiens)) for the following compound: `COc1nc(Nc2ccc(CN3CCC(C)CC3)cc2)nc2[nH]cc(-c3ccc(NS(C)(=O)=O)cc3)c12`
Marked response: > 7.52

Exam item: Look up and report measured pIC50 (Tyrosine-protein kinase receptor UFO (Homo sapiens)) for the following compound: COC[C@H](C)Nc1ncc2c(-c3cnn(C(C)(C)C(=O)N4CCOC(C(C)(C)O)C4)c3)cc([C@H]3CC[C@H](O)CC3)n2n1 (some centres unmarked)
Marked response: ≥ 7.00

----------
Here's a roundup of IC50 values tested on Tyrosine-protein kinase receptor UFO (Homo sapiens), taken from various published works.

Please review the entries below; each comes with its answer.
structure_string=COC[C@H](C)Nc1ncc2c(-c3ccc(N4CCN(C)CC4)nc3)cc([C@H]3CC[C@H](O)CC3)n2n1 quantity_kind=IC50 endpoint_value="≤ 100 nM"
structure_string=CCCCC[C@H](C)Nc1ncc2c([C@H]3CC[C@@H](C(=O)N4CCN(C)CC4)CC3)cc([C@H]3CC[C@H](O)CC3)n2n1 quantity_kind=IC50 endpoint_value="≤ 100 nM"
structure_string=Nc1ncc(-c2cnn(C3CCNCC3)c2)cc1-c1nc(-c2c(Cl)cccc2Cl)no1 quantity_kind=IC50 endpoint_value="< 500 nM"
structure_string=COc1nc(Nc2ccc(CN3CCC(C)CC3)cc2)nc2[nH]cc(-c3ccc(O)cc3)c12 quantity_kind=IC50 endpoint_value="< 30 nM"
structure_string=COC[C@H](C)Nc1ncc2c(-c3cnn(C(C)(C)C(=O)N4CCC(C)(C#N)CC4)c3)cc([C@H]3CC[C@H](O)CC3)n2n1 quantity_kind=IC50 endpoint_value="≤ 100 nM"

Exam item: Look up and report measured IC50 (Tyrosine-protein kinase receptor UFO (Homo sapiens)) for the following compound: `CCN1CCN(Cc2ccc(Nc3nc(OCCOC)c4c(-c5ccc(OCc6ccccn6)cc5F)c[nH]c4n3)cc2)CC1`
Marked response: < 30 nM

Exam item: Look up and report measured IC50 (Tyrosine-protein kinase receptor UFO (Homo sapiens)) for the following compound: `COC[C@H](C)Nc1ncc2c(-c3ccnc(N4CCN(C(=O)C5COC5)CC4)c3)cc([C@H]3CC[C@H](O)CC3)n2n1`
Marked response: ≤ 100 nM

Exam item: Look up and report measured IC50 (Tyrosine-protein kinase receptor UFO (Homo sapiens)) for the following compound: `COC[C@H](C)Nc1ncc2c(-c3cnn(C4CN(C(=O)C5COC5)C4)c3)cc([C@H]3CC[C@H](O)CC3)n2n1`
Marked response: ≤ 100 nM
